biological target: human SGLT2 (Homo sapiens (Human)); assay: Inhibition test of sodium-dependent glucose uptake in CHO-K1 cells stably expressing human SGLT2; type: cell-based; conditions: [14C]methyl α-D-glucopyranoside uptake, 37° C., 60 minutes, read-out: IC50 for hSGLT2
Sequence (P31639 whole entry): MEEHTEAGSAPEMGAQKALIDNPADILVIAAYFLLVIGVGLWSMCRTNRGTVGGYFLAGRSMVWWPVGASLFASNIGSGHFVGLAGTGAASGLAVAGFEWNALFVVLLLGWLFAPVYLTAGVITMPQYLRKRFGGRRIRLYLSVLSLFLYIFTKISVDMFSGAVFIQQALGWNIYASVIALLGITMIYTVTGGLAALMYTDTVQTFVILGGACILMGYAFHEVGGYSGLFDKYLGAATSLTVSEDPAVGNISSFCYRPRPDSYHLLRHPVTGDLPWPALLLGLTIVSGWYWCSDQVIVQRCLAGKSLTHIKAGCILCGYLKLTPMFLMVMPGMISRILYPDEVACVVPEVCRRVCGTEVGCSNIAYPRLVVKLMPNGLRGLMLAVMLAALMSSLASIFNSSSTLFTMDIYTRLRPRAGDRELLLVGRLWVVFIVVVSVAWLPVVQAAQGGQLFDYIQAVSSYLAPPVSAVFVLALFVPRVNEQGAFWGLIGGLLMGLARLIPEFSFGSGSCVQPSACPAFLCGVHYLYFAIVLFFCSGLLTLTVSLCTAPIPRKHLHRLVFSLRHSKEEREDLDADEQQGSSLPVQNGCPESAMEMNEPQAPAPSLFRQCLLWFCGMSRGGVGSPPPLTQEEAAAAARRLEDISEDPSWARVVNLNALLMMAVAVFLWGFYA
pIC50: −log10 of the molar value.
assay_endpoint: pIC50

COc1cc(C(C)C)c(Cc2ccc(/C=C/C(C)(C)C(=O)NC(C)(C)C(N)=O)cc2C)cc1[C@@H]1O[C@H](CO)[C@@H](O)[C@H](O)[C@H]1O	6.26

###

target: human SGLT1 (Homo sapiens (Human), UniProt P13866); test: Inhibition test of sodium-dependent glucose uptake in CHO-K1 cells stably expressing human SGLT1; settings: [14C]methyl α-D-glucopyranoside uptake, 37° C., 30 minutes, read-out: IC50 for hSGLT1
Sequence (P13866 whole entry): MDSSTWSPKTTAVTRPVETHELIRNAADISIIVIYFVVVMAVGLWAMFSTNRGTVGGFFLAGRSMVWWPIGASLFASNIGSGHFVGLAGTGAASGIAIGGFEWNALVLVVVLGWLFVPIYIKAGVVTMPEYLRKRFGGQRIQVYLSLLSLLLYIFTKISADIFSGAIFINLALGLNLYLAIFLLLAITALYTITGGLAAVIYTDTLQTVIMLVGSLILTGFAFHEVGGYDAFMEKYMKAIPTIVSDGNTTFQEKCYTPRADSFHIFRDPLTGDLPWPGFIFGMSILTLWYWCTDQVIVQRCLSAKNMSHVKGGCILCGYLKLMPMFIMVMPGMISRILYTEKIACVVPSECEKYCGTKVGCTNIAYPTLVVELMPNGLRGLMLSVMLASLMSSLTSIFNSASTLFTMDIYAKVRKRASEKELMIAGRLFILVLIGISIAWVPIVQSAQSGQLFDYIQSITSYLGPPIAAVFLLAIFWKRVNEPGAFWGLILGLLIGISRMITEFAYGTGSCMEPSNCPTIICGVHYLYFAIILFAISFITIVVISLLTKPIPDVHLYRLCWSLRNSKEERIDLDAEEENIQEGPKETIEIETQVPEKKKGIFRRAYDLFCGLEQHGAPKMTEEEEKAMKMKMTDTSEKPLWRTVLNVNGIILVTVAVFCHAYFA
assay_endpoint: IC50 (nM)

COc1cc(C(C)C)c(Cc2ccc(/C=C/C(C)(C)C(=O)NC(C)(C)C(N)=O)cc2C)cc1[C@@H]1O[C@H](CO)[C@@H](O)[C@H](O)[C@H]1O [Compound (I)]	65
